Here the recorded TGI is given for each entry.
test system: NCI-H460 lung; assay: NCI tumour cell line growth inhibition, 48 h
Where a SMILES comes first, the peptide text is derived from it. The star is where a group is joined. Boc = CC(C)(C)OC(=O)*

| Molecule | TGI |
| --- | --- |
| O=[N+]([O-])c1ccc(/C=C/c2nc3ccc(Cl)cc3[nH]2)cc1 | 84.9 µM |
| COc1cc2c(NCCCCCO)ncnc2c(OC)c1OC | > 100 µM |
| O=C(CCBr)N1CCN(C(=O)CCBr)CC1 | 113 µM |
| N/C=N/S(=O)(=O)c1ccc(NC(=O)COC(=O)c2cccc3c(=O)c4ccccc4[nH]c23)cc1 | > 100 µM |
| C/C=C1/CN2CCC34c5ccccc5N(C)C23C2CC1C4(C(=O)OC)C(OC(C)=O)O2 (stereo not drawn) | > 100 µM |
| O=c1[nH]c2ccccc2c(O)c1Cc1ccccc1 | > 100 µM |
| CC1(C)NC(=O)N(CCCCCCN2C(=O)NC(C)(C)C2=O)C1=O | > 100 µM |
| Cn1c2ccc(F)cc2c2ccc3c(c21)C(=O)C=CC3=O | > 100 µM |
| CCC(C)(C)c1cc(O)c(C(C)(C)CC)cc1O | 6.53 µM |
| CC(=O)OCC1OC(N2C(=O)NC(=O)C3C=C4CCCCC4=CC32)CC1OC(C)=O (stereo not drawn) | > 100 µM |
| CSc1cc(Cl)c(C)cc1S(=O)(=O)NC(=O)NNc1ccc(F)cc1 | > 100 µM |
| O=C(CN1CCN(Cc2ccccc2Cl)CC1)NC1CC(=O)c2c(Br)sc(Br)c21 (stereo not drawn) | 35.2 µM |
| C/C(=N\NC(=S)N1CCN(c2ccccn2)CC1)c1ccccn1 | 12.9 µM |
| Cc1[nH]c(=O)nc(N/N=C/c2ccc(O)cc2)c1C(=O)Nc1ccc(O)cc1 | > 100 µM |
| COC(=O)C(Cc1ccccc1)NC(=O)C(CS)NC(=O)OC(C)(C)C (stereo not drawn) (Boc-Cys-Phe-OMe; configuration not given here) | > 100 µM |
| C[C@@]1(CCCCCCCCCCc2ccccc2)C[C@@]2(C)OC(=O)C[C@H]2OO1 | 5.06 µM |
| CC[C@@]1(O)C[C@H](OC2CC(N(C)C)C(O)C(C)O2)c2c(cc3c(c2O)C(=O)c2c(O)ccc(O)c2C3=O)[C@H]1C(=O)OC (stereo partly drawn) | 0.12 µM |
| CC1CCC2C(C)C(=O)OC3OC4(C)CCC1C32OO4 (stereo not drawn) | > 100 µM |
| Cc1cc2nc3c(C#N)c4c(c(Nc5ccc(F)cc5)n3c2cc1C)CCC4 | > 100 µM |
| COC1OCC(O)C(NC(=O)N(C)N=O)C1O (stereo not drawn) | > 100 µM |
| CN(c1ccccc1)S(=O)(=O)c1ccc([N+](=O)[O-])cc1 | > 100 µM |
| N#CC1C[C@@H]2CC3(CCC2CN1C(=O)c1ccccc1)OCCO3 (stereo partly drawn) | > 100 µM |
| CN1CC=C(c2cc(NC(=O)Nc3ccc(Oc4ccnc(NC(=O)C5CC5)c4)c(F)c3)cc(C(F)(F)F)c2)CC1 | 0.66 µM |

----------
test system: SK-MEL-28 melanoma; assay: NCI tumour cell line growth inhibition, 48 h
Measured property: GI50

| Compound | Reported measurement |
| --- | --- |
| CCN1CCC(CC(=O)Nc2n[nH]c3nnc(-c4cccc(F)c4F)cc23)CC1 | > 25 µM |
| CN1CCN(C(=O)[C@@]2(C)CC[C@]3(C)CC[C@]4(C)C(=CC[C@@H]5[C@@]6(C)CCC(=O)NC(C)(C)[C@@H]6CC[C@]54C)[C@@H]3C2)CC1 | 1.56 µM |
| COc1cc2c3c(n(CCCN4CCNCC4)c(=O)c2cc1OC)-c1cc2c(cc1C3=O)OCO2 | 4.11 µM |
| COc1ccc(-c2cc(/C=C3\C(=O)Nc4cc(Cl)ccc43)[nH]n2)cc1 | 7.45 µM |
| O=C(CN1CCN(Cc2ccccc2Cl)CC1)NC1CC(=O)c2c(Br)sc(Br)c21 (stereo not drawn) | 18.1 µM |
| O=C(/C=C/C12c3ccccc3C(c3ccccc31)C1C(=O)N(c3ccc(Cl)cc3)C(=O)C12)c1ccccn1 (stereo not drawn) | 0.342 µM |
| CN1CCN(Cc2ccc(NC(=O)c3cncc(C#Cc4c(N)ncc5ccc(C#N)cc45)c3)cc2C(F)(F)F)CC1 | 0.35 µM |
| CC1CCC2C(C)C(=O)OC3OC4(C)CCC1C32OO4 (stereo not drawn) | > 100 µM |

----------
Here the recorded TGI is given for each entry.
system: DU-145 prostate; assay: NCI tumour cell line growth inhibition, 48 h
Measured property: TGI (µM)

| Molecule | Measured property | Units symbol | Relation sign | Reported measurement |
| --- | --- | --- | --- | --- |
| N#Cc1c(NCc2ccccc2)nc(NCc2ccccc2)c(C#N)c1-c1ccc(Cl)cc1 | TGI | µM | > | 100 |
| COc1cc(C2S/C(=C/c3ccccc3)C(=O)N2Cc2ccccc2)cc(OC)c1OC (stereo not given) | TGI | µM | > | 100 |
| CCn1c2nc(=O)n(CCCCCCCCSC(c3ccccc3)(c3ccccc3)c3ccccc3)c(=O)c-2nc2ccccc21 | TGI | µM | > | 100 |
| COc1cc(C2c3cc4c(cc3OC(NNC(N)=O)C2C)OCO4)cc(OC)c1OC (stereo not given) | TGI | µM | > | 100 |
| O=C(O)CCCCn1ccc(=O)[nH]c1=O | TGI | µM | > | 100 |
| COc1ccccc1NC(=S)N=Nc1c(O)[nH]c2ccccc12 | TGI | µM | = | 13.7 |
| O=c1c2c3c(sc2nc2n1N=CN(c1ccccc1)C2)CCCC3 | TGI | µM | > | 100 |
| CN1CC=C(c2cc(NC(=O)Nc3ccc(Oc4ccnc(NC(=O)C5CC5)c4)c(F)c3)cc(C(F)(F)F)c2)CC1 | TGI | µM | = | 1.62 |
| O=C(/C=C/C12c3ccccc3C(c3ccccc31)C1C(=O)N(c3ccc(Cl)cc3)C(=O)C12)c1ccccn1 (stereo not given) | TGI | µM | = | 0.747 |
| COc1cc2c(NCCCCCO)ncnc2c(OC)c1OC | TGI | µM | > | 100 |
| Oc1cc(N2CC2)c(O)cc1N1CC1 | TGI | µM | = | 1.37 |
| O=C1/C(=C/c2ccc([N+](=O)[O-])s2)Oc2cc(Cl)ccc21 | TGI | µM | > | 100 |
| COC(=O)c1c(O)ccc2c1c1cc3ccccc3cc1n2Cc1cc(OC)cc(OC)c1 | TGI | µM | = | 59.1 |
| N#CC(C#N)=NNc1ccc2cn[nH]c2c1 | TGI | µM | = | 82.9 |
| Cc1c(C(=O)O)n2c(=S)[nH]nc2c2ccccc12 | TGI | µM | > | 100 |

----------
tested on: OVCAR-4 ovarian; assay: NCI tumour cell line growth inhibition, 48 h
Here the recorded TGI is given for each entry.

| Compound | Assayed target | TGI |
| --- | --- | --- |
| COC(=O)[C@H](CC(C)C)NC(=O)[C@H](Cc1ccccc1)N1CC2C=CC1C2 (stereo partly drawn) | OVCAR-4 ovarian | > 100 µM |
| CC(=O)C(=O)NC1/C=C(C)\C=C/C(O)C/C=C(C)\C=C/C(O)CC2OC(=O)C1(C)C(=O)C2C (stereo not drawn) | OVCAR-4 ovarian | > 100 µM |
| O=c1c2c3c(sc2nc2n1N=CN(c1ccccc1)C2)CCCC3 | OVCAR-4 ovarian | > 100 µM |
| CN1CCN(C(=O)CCC(=O)Nc2cc3c(c4ccccc24)-c2ccc4ccccc4c2C3)CC1 | OVCAR-4 ovarian | 3.08 µM |
| CN(c1ccccc1)S(=O)(=O)c1ccc([N+](=O)[O-])cc1 | OVCAR-4 ovarian | > 100 µM |
| OCc1ccc(-c2csc(-c3ccc(CO)o3)c2)o1 | OVCAR-4 ovarian | > 100 µM |
| CC1(C)CC(=O)C=C(/C=C/Sc2c(Cl)c(Cl)nc(Cl)c2Cl)C1 | OVCAR-4 ovarian | 57.9 µM |
| CN1CC=C(c2cc(NC(=O)Nc3ccc(Oc4ccnc(NC(=O)C5CC5)c4)c(F)c3)cc(C(F)(F)F)c2)CC1 | OVCAR-4 ovarian | 2.35 µM |
| C/C=C1/CN2CCC34c5ccccc5N(C)C23C2CC1C4(C(=O)OC)C(OC(C)=O)O2 (stereo not drawn) | OVCAR-4 ovarian | > 100 µM |
| c1ccc2c(c1)SC(=C1Sc3ccccc3S1)S2 | OVCAR-4 ovarian | > 100 µM |
| N#CCCN(CCC#N)c1ccc(/C=C(/NC(=O)c2cc([N+](=O)[O-])ccc2Cl)C(=O)NN)cc1 | OVCAR-4 ovarian | > 100 µM |
| COC1=CC(c2ccc[nH]2)=N/C1=C\c1[nH]c(C)c(C(=O)CCC(=O)Oc2ccc3c(c2)CCC2C3CC[C@]3(C)[C@@H](O)CC[C@@H]23)c1C (stereo partly drawn) | OVCAR-4 ovarian | > 100 µM |
| COc1ccc2c(c1)[n+]([O-])c(-c1cccc(Cl)c1)c(N)[n+]2[O-] | OVCAR-4 ovarian | > 100 µM |
| CCc1cc(C)cc2[n+]1CC=C2 | OVCAR-4 ovarian | > 100 µM |
| CC(C)(C)N/N=C(\C(=O)Nc1cccc(Cl)c1)C1C(=O)Nc2ccccc2S1=O (stereo not drawn) | OVCAR-4 ovarian | > 100 µM |
| CCC(=O)Nc1cccc(N=Cc2ccc(OC(=O)/C=C\c3ccccc3)cc2)c1 | OVCAR-4 ovarian | > 75 µM |
| COc1ccc2c(c1)CC[C@@H]1C2CC[C@]2(C)C(=O)N(CCN(C)C)C(=O)CC12 (stereo partly drawn) | OVCAR-4 ovarian | > 100 µM |
| CC(=O)c1ccccc1NC(=O)C(=O)C(C(=O)c1ccc2ccccc2c1)C1OC(=O)c2ccccc21 (stereo not drawn) | OVCAR-4 ovarian | 57 µM |
| COC(=O)C1=COC2OC3C(C(C)O)C(=O)OC34C=CC1C24 (stereo not drawn) | OVCAR-4 ovarian | > 100 µM |
| CCCCCCCCCCNCCSSCc1ccc(Cl)cc1 | OVCAR-4 ovarian | 3.09 µM |
| CN1CCN(Cc2ccc(NC(=O)c3cncc(C#Cc4c(N)ncc5ccc(C#N)cc45)c3)cc2C(F)(F)F)CC1 | OVCAR-4 ovarian | 1.37 µM |
| C[C@H](c1ccc(F)cc1CCCC(=O)O)N(c1cc(F)ccc1F)S(=O)(=O)c1ccc(Cl)cc1 | OVCAR-4 ovarian | > 89.9 µM |
| Cn1cnc(N2CCCC2)c(C#N)c1=S | OVCAR-4 ovarian | > 100 µM |
| COc1cc2c3c(n(CCCN4CCNCC4)c(=O)c2cc1OC)-c1cc2c(cc1C3=O)OCO2 | OVCAR-4 ovarian | 12.4 µM |
| COc1cccc2c1C(=O)c1c(O)c3c(c(O)c1C2=O)C[C@@](O)(C(C)=O)CC3S(=O)(=O)O (stereo partly drawn) | OVCAR-4 ovarian | > 100 µM |
| CNC(=O)c1nn(C)c2c1C(C)(C)Cc1cnc(Nc3cccc(N4CCN(C)CC4)c3)nc1-2 | OVCAR-4 ovarian | 44.3 µM |
| O=C(CCBr)N1CCN(C(=O)CCBr)CC1 | OVCAR-4 ovarian | 181 µM |
| COc1cc(OC)cc(Oc2cnc3cc(N)cc(N)c3n2)c1 | OVCAR-4 ovarian | 21.8 µM |
| CCn1c(-c2nonc2N)nc2c(C#CC(C)(C)O)ncc(OC3CCNCC3)c21 | OVCAR-4 ovarian | > 25 µM |
| CCc1ccccc1NC(=O)C(C#N)C1=C(Cl)C(=O)c2ccccc2C1=O (stereo not drawn) | OVCAR-4 ovarian | 27.6 µM |
| Cc1ccc(Cc2cc(N3CCN(c4cccc(Cl)c4)CC3)nnc2C)cc1 | OVCAR-4 ovarian | > 100 µM |
| O=C1/C(=C/c2ccc(O)cc2)CCCC1CN1CCCCC1 (stereo not drawn) | OVCAR-4 ovarian | 25.8 µM |
| CNS(=O)(=O)OCC1OC(n2cnc3cncnc32)C(O)C1O (stereo not drawn) | OVCAR-4 ovarian | > 100 µM |
| O=C([O][Hg][c]1ccccc1)c1ccccc1 | OVCAR-4 ovarian | 6.22 µM |
| CN(C)CN1CSC(=S)N(CN(C)C)C1 | OVCAR-4 ovarian | > 100 µM |
| Cc1cc(Cl)nc2ccc(Cc3ccc4nc(Cl)cc(C)c4c3)cc12 | OVCAR-4 ovarian | > 100 µM |
| COc1cccc2c1NC(=O)Cc1c-2[nH]c2ccccc12 | OVCAR-4 ovarian | > 100 µM |
| Oc1c(CN2CCCC2)ccc2cccnc12 | OVCAR-4 ovarian | > 100 µM |
